Source listed as paper PMC10451648.

Test system: human red blood cells
Test: Hemolysis activity against red blood cells
Settings: human RBCs in 172 mM Tris-HCl pH 7.6, 30 min at 37 °C, absorbance 535 nm; DMSO = 0%, M-Lycotoxin = 100%; final peptide conc. 100 to 0.39
Square brackets hold non-standard residues; d marks the D form. Peptide text beside a SMILES is read from it. Api = NC1(C(=O)O)CCNCC1; Aib = CC(C)(N)C(=O)O
endpoint name: Hemolysis (concentration at which hemolytic activity is exhibited) (µM)

1. CC[C@H](C)[C@H](NC(=O)CN)C(=O)NC1(C(=O)N[C@@H](CCCCN)C(=O)N[C@@H](Cc2ccccc2)C(=O)N[C@@H](CC(C)C)C(=O)N[C@@H](CCCCN)C(=O)N[C@@H](CO)C(=O)NC(C)(C)C(=O)N[C@@H](CCCCN)C(=O)N[C@@H](CCCCN)C(=O)N[C@@H](Cc2ccccc2)C(=O)N[C@H](C(=O)N[C@@H](CCCCN)C(=O)NC(C)(C)C(=O)N[C@@H](Cc2ccccc2)C(=O)N[C@@H](CCCCN)C(N)=O)C(C)C)CCNCC1 [Peptide 2] (H-GI[Api]KFLKS[Aib]KKFVK[Aib]FK-NH2) ... 12.5

----------
Listed here: items and their measured Hemolysis (concentration at which hemolytic activity is exhibited).
Tested on: human red blood cells
Test: Hemolysis activity against red blood cells
Settings: human RBCs in 172 mM Tris-HCl pH 7.6, 30 min at 37 °C, absorbance 535 nm; DMSO = 0%, M-Lycotoxin = 100%; final peptide conc. 100 to 0.39
Square brackets hold non-standard residues; d marks the D form. Peptide text beside a SMILES is read from it. Api = NC1(C(=O)O)CCNCC1; Aib = CC(C)(N)C(=O)O
endpoint name: Hemolysis (concentration at which hemolytic activity is exhibited) (µM)

1. CC[C@H](C)[C@H](NC(=O)CN)C(=O)N[C@@H](CCCCN)C(=O)N[C@@H](CCCCN)C(=O)N[C@@H](Cc1ccccc1)C(=O)N[C@@H](CC(C)C)C(=O)N[C@@H](CCCCN)C(=O)N[C@@H](CO)C(=O)NC(C)(C)C(=O)N[C@@H](CCCCN)C(=O)N[C@@H](CCCCN)C(=O)N[C@@H](Cc1ccccc1)C(=O)N[C@H](C(=O)N[C@@H](CCCCN)C(=O)NC(C)(C)C(=O)N[C@@H](Cc1ccccc1)C(=O)NC1(C(N)=O)CCNCC1)C(C)C [Peptide 8] (H-GIKKFLKS[Aib]KKFVK[Aib]F[Api]-NH2) ... 100
2. CC[C@H](C)[C@H](NC(=O)CN)C(=O)N[C@@H](CCCCN)C(=O)N[C@@H](CCCCN)C(=O)N[C@@H](Cc1ccccc1)C(=O)N[C@@H](CC(C)C)C(=O)N[C@@H](CCCCN)C(=O)N[C@@H](CO)C(=O)NC(C)(C)C(=O)N[C@@H](CCCCN)C(=O)NC1(C(=O)N[C@@H](Cc2ccccc2)C(=O)N[C@H](C(=O)N[C@@H](CCCCN)C(=O)NC(C)(C)C(=O)N[C@@H](Cc2ccccc2)C(=O)N[C@@H](CCCCN)C(N)=O)C(C)C)CCNCC1 [Peptide 6] (H-GIKKFLKS[Aib]K[Api]FVK[Aib]FK-NH2) ... 50

----------
System: human red blood cells
Assay: Hemolysis activity against red blood cells
Details: human RBCs in 172 mM Tris-HCl pH 7.6, 30 min at 37 °C, absorbance 535 nm; DMSO = 0%, M-Lycotoxin = 100%; final peptide conc. 100 to 0.39
Square brackets hold non-standard residues; d marks the D form. Peptide text beside a SMILES is read from it. Api = NC1(C(=O)O)CCNCC1; Aib = CC(C)(N)C(=O)O
Listed here: items and their measured Hemolysis (concentration at which hemolytic activity is exhibited).
endpoint name: Hemolysis (concentration at which hemolytic activity is exhibited)

1) CC[C@H](C)[C@H](NC(=O)CN)C(=O)N[C@@H](CCCCN)C(=O)N[C@@H](CCCCN)C(=O)N[C@@H](Cc1ccccc1)C(=O)N[C@@H](CC(C)C)C(=O)N[C@@H](CCCCN)C(=O)N[C@@H](CO)C(=O)NC(C)(C)C(=O)N[C@@H](CCCCN)C(=O)N[C@@H](CCCCN)C(=O)N[C@@H](Cc1ccccc1)C(=O)N[C@H](C(=O)NC1(C(=O)NC(C)(C)C(=O)N[C@@H](Cc2ccccc2)C(=O)N[C@@H](CCCCN)C(N)=O)CCNCC1)C(C)C [Peptide 7] (H-GIKKFLKS[Aib]KKFV[Api][Aib]FK-NH2) ... 12.5 µM
2) CC[C@H](C)[C@H](NC(=O)CN)C(=O)N[C@@H](CCCCN)C(=O)N[C@@H](CCCCN)C(=O)N[C@@H](Cc1ccccc1)C(=O)N[C@@H](CC(C)C)C(=O)N[C@@H](CCCCN)C(=O)N[C@@H](CO)C(=O)NC(C)(C)C(=O)N[C@@H](CCCCN)C(=O)N[C@@H](CCCCN)C(=O)N[C@@H](Cc1ccccc1)C(=O)N[C@H](C(=O)N[C@@H](CCCCN)C(=O)NC(C)(C)C(=O)N[C@@H](Cc1ccccc1)C(=O)N[C@@H](CCCCN)C(N)=O)C(C)C [Peptide 1] (H-GIKKFLKS[Aib]KKFVK[Aib]FK-NH2) ... 100 µM
